- Tested on: green foxtail
- test-method-notes: Test E green foxtail
- Assay type: in vivo, Setaria viridis
- study-conditions: Preemergence, Rate 125 g/ha; 0 to 100 scale (0 no effect, 100 complete control)
# Plant response rating, Green foxtail per record follows
Reply briefly: the number, and no unit.

In the examples that follow, each entry is paired with its recorded Plant response rating, Green foxtail.
CC(C)N(C(=O)n1oc(=O)n(C(C)C)c1=O)c1ccccc1 :: 70
CC(C)N(C(=O)n1oc(=O)n(C2CCC2)c1=O)c1ccc(F)cc1F :: 40
[2H]C([2H])([2H])n1c(=O)on(C(=O)N(c2ccc(F)cc2)C(C)C)c1=O :: 100
CC1CC1n1c(=O)on(C(=O)N(c2ccccc2)C(C)C)c1=O (centres unmarked) :: 70

### Prompt Which Plant response rating, Green foxtail is reported for this molecule? CC1CC1n1c(=O)on(C(=O)N(c2ccc(F)cc2F)C(C)C)c1=O (centres unmarked)
### Response 60

---

- System: giant foxtail
- test-method-notes: Test B pre/postemergence giant foxtail
- Type: in vivo, Setaria faberii
- study-conditions: Preemergence, Rate 62 g/ha; scale of 0 to 10 where 0 is no effect and 10 is complete control
Entry flag: Yes if Giant foxtail plant response rating reaches 6; No if it does not.

Worked cases, answers included:
COC(=O)C=CCn1c(=O)on(C(=O)N(c2ccc(F)cc2)C(C)C)c1=O [Compound 263] :: No
CC(C)N(C(=O)n1oc(=O)n(C[C@H](C)Cl)c1=O)c1ccc(F)cc1F [Compound 714] :: Yes
Cc1ccccc1-n1c(=O)on(C(=O)N(c2ccc(C(C)C)cc2)C(C)C)c1=O [Compound 231] :: No
CC(C)N(C(=O)n1oc(=O)n(CCCCl)c1=O)c1ccc(F)cc1 [Compound 713] :: Yes

Next item in the queue.
### Prompt Can CC(C)N(C(=O)n1oc(=O)n(COCc2ccccc2)c1=O)c1ccc(F)cc1 [Compound 261] be said to have Giant foxtail plant response rating at or above 6?
### Response Yes

---

- Test system: wild oat
- test-method-notes: Test E wild oat
- Type: in vivo, Avena fatua
- study-conditions: Preemergence, Rate 125 g/ha; 0 to 100 scale (0 no effect, 100 complete control)
property-name: Plant response rating, Wild oat
Reply briefly: the number, and no unit.

CC(C)N(C(=O)n1oc(=O)n(C(C)C)c1=O)c1ccccc1 [Compound 113] :: 30
[2H]C([2H])([2H])n1c(=O)on(C(=O)N(c2ccc(F)cc2)C(C)C)c1=O [Compound 245] :: 30
CC1CC1n1c(=O)on(C(=O)N(c2ccc(F)cc2F)C(C)C)c1=O (stereo not shown) [Compound 372] :: 50

Next up:
### Prompt Which Plant response rating, Wild oat is reported for this compound? CC(C)N(C(=O)n1oc(=O)n(CCC2OCCO2)c1=O)c1ccc(F)cc1 [Compound 219]
### Response 30

---

# Redroot pigweed plant response rating per record follows
- System: pigweed
- test-method-notes: Test B pre/postemergence pigweed
- Format: in vivo, Amaranthus retroflexus
- study-conditions: Rate 125 g/ha; Postemergence; scale 0 to 10, 0 no effect, 10 complete control

In the examples that follow, each entry is paired with its recorded Redroot pigweed plant response rating.
COc1ccc(-n2c(=O)on(C(=O)N(c3ccc(F)cc3)C(C)C)c2=O)c(OC)c1 [Compound 33] :: 2
Cc1nn(C)c(C)c1-n1c(=O)on(C(=O)N(c2ccc(F)cc2F)C(C)C)c1=O [Compound 76] :: 0
CN(C(=O)n1oc(=O)n(Cc2cccs2)c1=O)c1ccccc1 [Compound 83] :: 0

Next up:
### Prompt Which Redroot pigweed plant response rating is reported for this molecule? CCN(C(=O)n1oc(=O)n(-c2ccc(F)cc2F)c1=O)C1CCCCC1 [Compound 23]
### Response 0
